A set of molecules tested on Full length wild-type cereblon CRBN (Homo sapiens, UniProt Q96SW2), with measured pIC50:
pIC50: −log10 of the molar value.

{"columns": ["molecule", "pIC50"],
 "data": [
  ["O=C1CCC(N2Cc3ccc(CNC(=O)Nc4ccccc4-c4ccccc4)cc3C2=O)C(=O)N1 (stereo not drawn) [Compound 66]", 6.35],
  ["O=C1CCC(N2Cc3ccc(CNC(=O)Nc4ccc(Cl)cc4)cc3C2=O)C(=O)N1 (stereo not drawn) [Compound 2]", 6.60],
  ["O=C1CCC(N2Cc3ccc(CNC(=O)Nc4ccc(F)c(Cl)c4)cc3C2=O)C(=O)N1 (stereo not drawn) [Compound 42]", 6.23],
  ["CC(C)(C)NC(=O)NCc1ccc2c(c1)C(=O)N(C1CCC(=O)NC1=O)C2 (stereo not drawn) [Compound 10]", 6.12],
  ["CN1CCC(COc2cc(Cl)cc(NC(=O)NCc3ccc4c(c3)C(=O)N(C3CCC(=O)NC3=O)C4)c2)C1 (stereo not drawn) [Compound 161]", 6.52],
  ["Cc1c(Cl)cc(NC(=O)NCc2ccc3c(c2)C(=O)N(C2CCC(=O)NC2=O)C3)cc1C[C@H]1CO[C@H](C)OC1 (stereo partly drawn) [Compound 141]", 6.45],
  ["CCCCCCNC(=O)NCc1ccc2c(c1)C(=O)N(C1CCC(=O)NC1=O)C2 (stereo not drawn) [Compound 13]", 6.03],
  ["O=C1CCC(N2Cc3ccc(CNC(=O)Nc4cccc(Oc5ccccn5)c4)cc3C2=O)C(=O)N1 (stereo not drawn) [Compound 121]", 6.61],
  ["C[C@H](NC(=O)NCc1ccc2c(c1)C(=O)N(C1CCC(=O)NC1=O)C2)c1ccccc1 (stereo partly drawn) [Compound 55]", 6.30],
  ["O=C1CCC(N2Cc3ccc(CNC(=O)Nc4cccc(CN5CCOCC5)c4)cc3C2=O)C(=O)N1 (stereo not drawn) [Compound 105]", 6.53],
  ["Cc1ccc(NC(=O)NCc2ccc3c(c2)C(=O)N(C2CCC(=O)NC2=O)C3)cc1C (stereo not drawn) [Compound 68]", 6.54],
  ["O=C1CCC(N2Cc3ccc(CNC(=O)Nc4ccccn4)cc3C2=O)C(=O)N1 (stereo not drawn) [Compound 123]", 6.24]
]}
